# Tested on: Chordin-like protein 2 (CHRDL2)
# assay_details: CHRDL2 small-molecule binders, primary screen, biochemical, small-molecule microarray, 635 nm fluorescence (AID 1126);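 also: printed compound slides probed with Chrdl2 protein at 4 µg/mL for 1 h at 4 C; score merges 667 nm emission intensity with signal to noise over three replicate slides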
# conditions: small-molecule microarray binding, fluorescence 635 nm; higher = more signal

- molecule: "CC(=O)OC[C@H]1O[C@H](CC=NOC(C)CN2CCCc3nc(C)c(C)cc32)C=C[C@@H]1OC(C)=O (some centres not stated)"
  composite z-score: 1.15
- molecule: "O=C1[C@H]2[C@H]3[C@H](O)[C@H](O)CC(=NOC[C@@H](O)COCc4ccco4)[C@@H]3CC[C@H]2C(=O)N1C1CCCCC1"
  composite z-score: 1.52
- molecule: "O=C1C=C[C@@H](O)[C@@H]2[C@@H]3C(=O)N(Cc4ccc5c(c4)OCO5)C(=O)[C@@H]3CC[C@@H]12"
  composite z-score: 0.761
- molecule: "CC(CCN1CCCCc2nc(C)c(C)cc21)=NOC[C@@H](O)[C@H]1O[C@@H]2OC(C)(C)O[C@@H]2[C@H]1O"
  composite z-score: 1.16
- molecule: "CO[C@@H]1C=CCC(=O)N[C@@H](C)C(=O)OC[C@@H](NS(=O)(=O)c2ccc(C)cc2)[C@H](C)C=CCC(=O)OC[C@H]1C"
  composite z-score: 1.07
- molecule: "CCOC(=O)NN=C1C[C@@H](O)[C@@H](O)[C@@H]2[C@@H]3C(=O)N(C[C@@H]4CCCO4)C(=O)[C@@H]3CC[C@H]12"
  composite z-score: 0.245
- molecule: "O=C1C[C@@H](O)[C@@H](O)[C@@H]2[C@@H]3C(=O)N(C4CCCCC4)C(=O)[C@@H]3CC[C@@H]12"
  composite z-score: 0.36
